Tested on: tropical house mosquito Culex quinquefasciatus (adults, 3 days old)
experimental details: Efficacy of formulations on surfaces (glazed/unglazed tiles, plywood), ten 3 day old mosquitoes, 3 min exposure
Format: in vivo
assay conditions: 2 h; in acetone on glazed tiles; Table 84
measure name: % KD and Mortality
Write your answer as a measured quantity: the number, then the unit.

Request: Give a short answer stating reported % KD and Mortality for "CC1(C)CC(O)CC(C)(C)N1[O]" .
Result: 0%

Request: Give a short answer stating reported % KD and Mortality for "O=C(O)CCCCCCCCC(=O)O" .
Result: 3%

Request: Give a short answer stating reported % KD and Mortality for "CNC(=O)Oc1cccc2c1OC(C)(C)O2" .
Result: 73%

Request: Give a short answer stating reported % KD and Mortality for "CC1(C)CC(O)CC(C)(C)N1" .
Result: 0%

Request: Give a short answer stating reported % KD and Mortality for "CC1(C)CC(OC(=O)CCCCCCCCC(=O)OC2CC(C)(C)NC(C)(C)C2)CC(C)(C)N1" .
Result: 0%

Request: Give a short answer stating reported % KD and Mortality for "CCCCCCCCON1C(C)(C)CC(OC(=O)CCCCCCCCC(=O)OC2CC(C)(C)N(OCCCCCCCC)C(C)(C)C2)CC1(C)C" .
Result: 3%

Request: Give a short answer stating reported % KD and Mortality for "CN1C(C)(C)CC(O)CC1(C)C" .
Result: 0%

Request: Give a short answer stating reported % KD and Mortality for "O=C(CCCCCCCCC(=O)ON1C(=O)CCC1=O)ON1C(=O)CCC1=O" .
Result: 0%

Request: Give a short answer stating reported % KD and Mortality for "O=C(CCCCCCCCC(=O)OCc1ccccc1)OCc1ccccc1" .
Result: 0%

Request: Give a short answer stating reported % KD and Mortality for COC(=O)CCCCCCCCC(=O)OC [1% Dimethyl sebacate] .
Result: 0%
